Would you mind telling me the reported cytotoxicity at 10 µM of each entry?
assay: Toxicity liver stage against HepG2, at 10uM; assay type: cell-based; design: test concentration 10 uM, cell line HepG2-A16-CD81EGFP; settings: human, HepG2-A16-CD81EGFP cells; read-out: INHIBITION
Answers are plain numbers, in %.

Sample answers from the record:
-- ask Give the reported value of cytotoxicity at 10 µM for this record: O=C(NCCn1ccnc1)NCc1ccc(N2CCCCCC2)nc1
-- reply 19

-- ask Give the reported value of cytotoxicity at 10 µM for this record: Cc1noc(C)c1C(C)NC(=O)N1CCN(c2cccs2)CC1 (stereo not drawn)
-- reply 6.43

-- ask Give the reported value of cytotoxicity at 10 µM for this record: CS(=O)(=O)N1CCOCC2(CCN(C(=O)c3ccco3)CC2)C1
-- reply 4.29

-- ask Give the reported value of cytotoxicity at 10 µM for this record: CN(C(=O)Cc1ccc(F)cc1)C1CCN(c2ccccn2)CC1
-- reply -15.8

-- ask Give the reported value of cytotoxicity at 10 µM for this record: O=C(NCC1CCN(CCc2ccccc2)C1)c1cc(Cl)c[nH]1 (stereo not drawn)
-- reply 10

// input: 8 compounds below; output: cytotoxicity at 10 µM for each
1. CCc1nc2n(n1)CCCC2NC(=O)Nc1ccc(F)cc1C#N (stereo not drawn)
2. Cc1ccc(CN2C[C@@H](C(=O)Nc3cccnc3)C[C@H]3OCC[C@H]32)o1
3. COCc1ccc(C(=O)N2CCCN(C(=O)OCC(C)C)CC2)cc1
4. Cn1cc(C2=CCN(CCCC(=O)Nc3ccc(C#N)cc3)CC2)cn1
5. COc1ccc(CNC(=O)CCn2cc(C)cn2)cc1C
6. CCCc1nnc(N2CC[C@](C)(O)[C@H](C)C2)s1
7. CCC(CC)c1cc(C(=O)N2CCN(C(C)C(N)=O)CC2)on1 (stereo not drawn)
8. c1ccc(OCc2n[nH]c3c2CN(CC2CC2)C3)nc1

-- reply
1: -0.802; 2: 3.82; 3: 13.4; 4: -6.84; 5: -4.27; 6: -10.4; 7: 5.82; 8: 7.49

// input: 2 compounds below; output: cytotoxicity at 10 µM for each
1. Cc1ccc(C(=O)NC2CCN(Cc3nc(CC(C)C)no3)CC2)s1
2. O=C1NCCN2CCN(C(=O)NCCc3ccccc3)CC12 (stereo not drawn)

-- reply
[7.61, 17.6]

// input: 5 compounds below; output: cytotoxicity at 10 µM for each
1. CNc1cc(-c2cc(OC)c(OC)c(OC)c2)ncn1
2. Cc1ccc2cccc(Oc3nc(C)c(C(=O)O)s3)c2n1
3. CCS(=O)(=O)N1CCO[C@H]2[C@H](Oc3ncccc3F)CC[C@@H]21
4. Cc1ccc(CN(C)C(=O)CCNS(=O)(=O)c2cccnc2)cc1
5. CC(OCC1CC1)C(=O)N1CCCN(Cc2cnn(C)c2)CC1 (stereo not drawn)

-- reply
[-11.8, 6.39, 2.63, -10.6, 2.55]

----------
assay: Toxicity liver stage against HepG2, at 10uM; type: cell-based; parameters: test concentration 10 uM, cell line HepG2-A16-CD81EGFP; details: human, HepG2-A16-CD81EGFP cells; read-out: INHIBITION
MEASURED PARAMETER: cytotoxicity at 10 µM (%)
Give bare numbers, in %.

Sample answers from the record:
-- ask Give the reported value of cytotoxicity at 10 µM for this record: O=c1[nH]c2cc(S(=O)(=O)N3CCC(c4ccsc4)CC3)ccc2o1
-- reply -9.69

-- ask Give the reported value of cytotoxicity at 10 µM for this record: O=C(C1CSc2ccccc2O1)N1CCN(CCO)CC1 (stereo not drawn)
-- reply -6.29

-- ask Give the reported value of cytotoxicity at 10 µM for this record: CC(C)CC(=O)N1C[C@H]2CCCN(S(=O)(=O)c3ccc(Cl)s3)[C@H]2C1
-- reply -1.63

-- ask Give the reported value of cytotoxicity at 10 µM for this record: O=C(NCc1nn(-c2ccccc2)c2c1CCC2)NCC1COCCO1 (stereo not drawn)
-- reply -3.39

-- ask Give the reported value of cytotoxicity at 10 µM for this record: CCNC(c1cccnc1)c1ccc(F)c(C)c1 (stereo not drawn)
-- reply -1.77

// input: 3 compounds below; output: cytotoxicity at 10 µM for each
1. CC(C)(O)CN1CCN(C(=O)COCC2CC2)CC1
2. O=C(O)c1cnc(N2CCCC2)nc1COc1ccc(F)cc1
3. COC(=O)CNC(=O)c1c(-n2cnnn2)sc2c1CCCC2

-- reply
1. -9.17
2. -1.14
3. 10.6

// input: 7 compounds below; output: cytotoxicity at 10 µM for each
1. O=S(=O)(NCCC(O)c1cccs1)c1ccccc1 (stereo not drawn)
2. Cn1cccc1C(O)CNS(=O)(=O)Cc1ccccc1 (stereo not drawn)
3. CC(CNC(=O)N1CCNC(=O)CC1)Cc1cccs1 (stereo not drawn)
4. COc1ccc(-c2nc3c([nH]2)CCNC3)c(OC)c1OC
5. O=C(NCc1ccnc(OCC2CC2)c1)C1COc2ccccc2O1 (stereo not drawn)
6. CN(C)CCC1CCN(Cc2ccn(C)c(=O)c2)CC1
7. O=C(Cc1ccccn1)N1CCC(c2noc(-c3ccncc3)n2)CC1

-- reply
[-3.82, -37.1, -5.62, 0.786, -3.88, -12.5, -26.8]

----------
Would you mind telling me the reported cytotoxicity at 10 µM of each entry?
test: Toxicity liver stage against HepG2, at 10uM; assay type: cell-based; design: test concentration 10 uM, cell line HepG2-A16-CD81EGFP; conditions: human, HepG2-A16-CD81EGFP cells; read-out: INHIBITION
One number for each entry, in %.

// input: 2 compounds below; output: cytotoxicity at 10 µM for each
1. CCOc1ccccc1C(=O)NCCc1ccoc1
2. Cc1ccc(CN2Cc3ccnn3CC(COCc3cccnc3)C2)o1 (centres undefined)

-- reply
[8.54, -143]

// input: 8 compounds below; output: cytotoxicity at 10 µM for each
1. Cn1ccc2ccnc(CC3CN(C(=O)C4CCC(F)(F)CC4)C3)c21
2. Cc1ccc(C)c(OCCNC(=O)C2CCOC2)c1 (centres undefined)
3. O=C(c1csc(-c2ccc(C(F)(F)F)cc2)n1)N1CCCNCC1
4. c1nc(CCNc2nc(C3CC3)nc3c2CCNCC3)c[nH]1
5. CC(CCc1ncnn1Cc1cccc(Cl)c1)N1CCCC1 (centres undefined)
6. O=S(=O)(N1CCCCCC1)N1CCN(Cc2ccc(F)cc2Br)CC1
7. COc1ccc(C)cc1CN(Cc1nc(C)c(C)o1)C1CCN(C)C1 (centres undefined)
8. CCc1nc(C(=O)N2CCN(C)CC2C)nn1-c1ccccc1Cl (centres undefined)

-- reply
1: -2.78; 2: -2.73; 3: 6.24; 4: -130; 5: -3.03; 6: -132; 7: -3.41; 8: -2.38

----------
test: Toxicity liver stage against HepG2, at 10uM; assay type: cell-based; set-up: test concentration 10 uM, cell line HepG2-A16-CD81EGFP; conditions: human, HepG2-A16-CD81EGFP cells; read-out: INHIBITION
MEASURED PARAMETER: cytotoxicity at 10 µM (%)
Numbers only, in %.

-- ask Give the reported value of cytotoxicity at 10 µM for this record: CC(=O)c1ccc(N2CCN(C(=O)NC(C)c3ccc(C)o3)CC2)cc1 (centres undefined)
-- reply 10.1

-- ask Give the reported value of cytotoxicity at 10 µM for this record: CCNC(=O)[C@@H]1C[C@@H](NC(=O)Cc2ccncc2)CN1Cc1ccsc1
-- reply -0.368

-- ask Give the reported value of cytotoxicity at 10 µM for this record: CC(C)c1cc(C2CCN(C(=O)Cn3cnnn3)CC2)[nH]n1
-- reply 8.04

-- ask Give the reported value of cytotoxicity at 10 µM for this record: O=C(CCc1ccco1)Nc1cccc(S(=O)(=O)C(F)F)c1
-- reply -42.5

-- ask Give the reported value of cytotoxicity at 10 µM for this record: COc1ncc(CN2CCOC(Cc3cccc4ccccc34)C2)cn1 (centres undefined)
-- reply -3.94

-- ask Give the reported value of cytotoxicity at 10 µM for this record: Cc1nc(CC(=O)N2CCN(C)CC2c2ccccc2)cs1 (centres undefined)
-- reply 3.49

-- ask Give the reported value of cytotoxicity at 10 µM for this record: CC(=O)N1[C@H](CN(C)C)C[C@@H]2CN(C(=O)c3cnc(C)cn3)CC[C@@H]21
-- reply -2.89

-- ask Give the reported value of cytotoxicity at 10 µM for this record: CSCc1cc(C(=O)NC2(C#N)CC2)ccc1F
-- reply -10.5

-- ask Give the reported value of cytotoxicity at 10 µM for this record: c1coc(CN2CCC3(CC2)COCCN(CCN2CCCC2)C3)c1
-- reply -7.82

-- ask Give the reported value of cytotoxicity at 10 µM for this record: CCOc1ccc(N2CCCN=C2NC(=O)c2cccc(OC)c2)cc1
-- reply 5.2

// input: 8 molecules below; output: cytotoxicity at 10 µM for each
1. CNC(=O)c1cccc(CNC(C)c2cc(C)ccc2OC(F)F)c1 (centres undefined)
2. O=C(O)c1ccccc1-c1ccc(CN2CC(c3ccncn3)C2)o1
3. O=C1CCOC[C@]2(CN(Cc3ccccc3)C[C@H]2c2ccccc2F)N1
4. Cc1nn(C)c(C)c1NC(=O)CCn1ncc2ccccc21
5. O=C(NCC1CCCO1)c1cc(COc2ccccc2F)[nH]n1 (centres undefined)
6. O=C(NC1CCCCNC1=O)c1cc2ccccc2[nH]c1=O (centres undefined)
7. NCc1cccc(-c2cccnc2C(=O)NCCN2CCCC2)c1
8. CN(Cc1cc2n(n1)CCNC2)Cc1n[nH]c2c1CCCCC2

-- reply
1: 20.2; 2: 4.54; 3: -1.02; 4: 10.8; 5: 10.8; 6: -6.08; 7: -6.9; 8: -6.32

Origin of measurements: ChEMBL document CHEMBL4513216
